# System: MDA-MB-231 breast
# test_details: NCI-60 one-dose screen, 48 h
# test_settings: 10 µM unless noted
This is part of a sample that, as a whole, favours compounds with a hit. Of some 83,000 tested, about 20% had one in any assay. Activity calls are given as the source filed them. The calls were made as follows: active = growth percent below 10; inactive = the rest.
Form entry, call: pick from active, inactive

What did this assay record as the result for `COc1cc(-c2cc(-c3nc4ccc(F)cc4[nH]3)[nH]n2)cc(OC)c1OC` ?
inactive

What did this assay record as the result for `Cn1cc(-c2nc(-c3c[nH]c4ncccc34)cs2)c2cc(Cl)ccc21` ?
inactive

What did this assay record as the result for `CC1(C)C(=O)/C(=C\c2ccco2)C[C@]2(C)[C@H]3CC[C@@H]4[C@@H](C(=O)/C=C/c5ccco5)CC[C@@]4(C)[C@]3(C)CC[C@@H]12` ?
inactive

What did this assay record as the result for `COc1ccc(-c2cc(/C=C/C(=O)c3ccc(OC)c(OC)c3)[nH]n2)cc1` ?
inactive

What did this assay record as the result for `Cc1ccc(-c2ccc(Nc3ccccc3)nn2)cc1S(N)(=O)=O` ?
inactive

What did this assay record as the result for `C=C1C(=O)O[C@H]2[C@H]1CC/C(COC(=O)NCc1cc3ccccc3[nH]1)=C\CC[C@@]1(C)O[C@@H]21` ?
active

What did this assay record as the result for `C[C@@H]1CCCCCCCCC[C@H](O)C(=O)C[C@@H](SC[C@@H](O)C(=O)O)C(=O)O1` ?
inactive

What did this assay record as the result for N#CC1=C(N)Oc2ccc3ccccc3c2C1c1ccccc1Cl (stereo not drawn) ?
inactive

What did this assay record as the result for `COc1ccc2c(c1)C/C(=C\c1cc(-c3ccc4c(c3)OCO4)n[nH]1)C2=O` ?
inactive

What did this assay record as the result for `COc1cccc(-c2nn(-c3ccccc3)cc2-c2ccnc(NCCNS(=O)(=O)c3ccc(C(F)(F)F)cc3)c2)c1` ?
active

What did this assay record as the result for `CCOc1ccc(NC(=O)c2ccoc2COc2ccccc2)cc1` ?
inactive

What did this assay record as the result for CCN1CCN(C(=O)[C@@]2(C)CC[C@]3(C)CC[C@]4(C)C(=CC(=O)[C@@H]5[C@@]6(C)CC[C@H](OC7C[C@@H](O)[C@@H](O)C(C)O7)C(C)(C)[C@@H]6CC[C@]54C)[C@@H]3C2)CC1 (stereo partly drawn) ?
active

What did this assay record as the result for `CCOC(=O)N1CCN(CCCCOc2ccc(C(C)(C)CC)cc2)CC1` ?
inactive

What did this assay record as the result for `CN(C)CCCCC(C(=O)CBr)(c1ccccc1)c1ccccc1` ?
inactive

What did this assay record as the result for `CC(C)(C)c1ccc(OP(=S)(N/N=C/c2ccccc2O)Oc2ccc(C(C)(C)C)cc2)cc1` ?
inactive

What did this assay record as the result for `COc1cc2c(cc1-c1c(C)noc1C)ncc1nc(C3CC3)n([C@H](C)COC(F)F)c12` ?
inactive

What did this assay record as the result for `O=C1CCCC=CC[C@H]2C=C(Cl)C(=O)C2=CC[C@H](CCCCC(F)(F)F)OC(=O)CCCC=CC[C@H]2C=C(Cl)C(=O)C2=CC[C@H](CCCCC(F)(F)F)OC(=O)CCCC=CC[C@H]2C=C(Cl)C(=O)C2=CC[C@H](CCCCC(F)(F)F)O1` ?
inactive

What did this assay record as the result for COc1ccc(C2NC(=O)Nc3ccccc32)c(OC)c1 (stereo not drawn) ?
inactive

What did this assay record as the result for `COc1cccc(-c2nn(-c3ccccc3)cc2-c2ccnc(NCCCN)c2)c1` ?
inactive

What did this assay record as the result for `Cn1c(=O)c2c(nc(N3CCCC3)n2C)n(C)c1=O` ?
inactive

What did this assay record as the result for `C/C(Cc1ccc(Cl)cc1)=C(/c1ccc(Cl)cc1)c1ccc(OCCN2CCCC2)cc1` ?
inactive

What did this assay record as the result for `COc1ccc2[nH]c(-c3ccc(Cl)cc3)cc(=O)c2c1` ?
inactive

What did this assay record as the result for `O=C(NC1=CC(=O)c2ccccc2C1=O)c1ccccc1` ?
inactive

====

Exercise: for every item that follows, state its recorded growth.
# Test system: SW-620 colon
# test_details: NCI-60 one-dose screen, 48 h (100 = growth as untreated, 0 = no growth, -100 = all killed)
# test_settings: 10 µM unless noted
Compounds without any hit were thinned out: in the full panel of roughly 83,000, 20% have a hit.
Quick note: give the figure in %, leave out the unit.

growth reading for C#CCC(C)(O)/C=C/C1=C(C)CCCC1(C)C (stereo unspecified) : 104

growth reading for `COc1cccc(-c2nn(-c3ccccc3)cc2-c2ccnc(NCCCO)c2)c1` : 21.3

growth reading for `CSc1ccc(N(C)c2nc(C)nc3c2CCC3)cc1` : 28.1

growth reading for CC(C)(C)c1[nH]nc2c1C(c1cc3ccccc3[nH]c1=O)Nc1cc(C(=O)OCc3ccccc3)ccc1N2 (stereo unspecified) : 54.4

growth reading for O=C(c1ccccc1)C(CN1CCOCC1)c1ccccc1 (stereo unspecified) : -45.2

growth reading for `O=Cc1nc2ccccc2[nH]1` : 101

====

# Test system: MDA-MB-435 melanoma
# test_details: NCI-60 one-dose screen, 48 h (100 = growth as untreated, 0 = no growth, -100 = all killed)
# test_settings: 10 µM unless noted
Compounds without any hit were thinned out: in the full panel of roughly 83,000, 20% have a hit.
Exercise: for every item that follows, state its recorded growth.
Quick note: give the figure in %, leave out the unit.

growth reading for `COc1cc2c(cc1OC)C(=O)/C(=C/c1cc(-c3ccc4c(c3)OCO4)n[nH]1)C2` : 17.3

growth reading for `CC1(C)[C@@H](O)CC[C@]2(C)[C@H]3CC[C@@H]4[C@H]5[C@H](C(=O)/C=C/c6ccc(C(F)(F)F)cc6)CC[C@]5(CO)CC[C@@]4(C)[C@]3(C)CC[C@@H]12` : 42.5

growth reading for `C/C(=N\Nc1ccc2ccccc2n1)c1ccccn1` : 3.21

growth reading for `C=COCCCCCCCCCCCCCCCCCC` : 114

growth reading for `CC1(n2nnnc2N2CCCN(c3ncccc3N)CC2)CCC1` : 99.5

growth reading for `CC1(C)CC[C@]2(CO)CC[C@]3(C)C(=CC[C@@H]4[C@@]5(C)CC[C@H](NCO)C(C)(C)[C@@H]5CC[C@]43C)[C@@H]2C1` : -5.37

====

# Test system: UACC-257 melanoma
# test_details: NCI-60 one-dose screen, 48 h (100 = growth as untreated, 0 = no growth, -100 = all killed)
# test_settings: 10 µM unless noted
Compounds without any hit were thinned out: in the full panel of roughly 83,000, 20% have a hit. The source made the active and inactive calls. How the source made its calls: active means growth percent below 10; inactive means the rest.
reported_property: growth

growth reading for `O=C1c2cccc3cccc(c23)C(=O)N1CC#Cc1ccc2c3c(cccc13)C(=O)N(CCN1CCNCC1)C2=O` : 104% (inactive)

growth reading for `CN1CCN(c2ccc3nc(-c4[nH]ncc4Nc4ncnc5[nH]ccc45)[nH]c3c2)CC1` : 11.7% (inactive)

growth reading for `c1csc(-c2nc(-c3cc4ccccc4c(N4CCOCC4)n3)cs2)c1` : 17.3% (inactive)

growth reading for `NCCn1cc(-c2nc(-c3c[nH]c4ncccc34)cs2)c2cc(Br)ccc21` : 95.5% (inactive)

growth reading for `CCN(CC)c1ccc(/C=C/c2cc(C)c3ccccc3n2)cc1` : 60.5% (inactive)

growth reading for `Cc1nnc2nc(N)[nH]n2c1=O` : 98.5% (inactive)

growth reading for `CN(C)c1cccc2[nH]c(-c3[nH]ncc3Nc3ccnc(N)n3)nc12` : -65.8% (active)

growth reading for `Cn1cc(-c2csc(-c3cn(CCNC(=O)OC(C)(C)C)c4ccc(F)cc34)n2)c2cccnc21` : 94.2% (inactive)

growth reading for `CCN(CC)CCCCCNc1cc(OC(=O)c2ccccc2)cc2cccnc12` : 120% (inactive)

growth reading for `CCN1CCN(C(=O)[C@]23CCC(C)(C)C[C@@H]2C2=CC[C@@H]4[C@@]5(C)C/C(=C/c6ccncc6)C(=O)C(C)(C)[C@@H]5CC[C@@]4(C)[C@]2(C)CC3)CC1` : -2.01% (active)

growth reading for `Cn1cc(-c2nc(-c3c[nH]c4ncccc34)cs2)c2ccccc21` : 95.5% (inactive)

growth reading for N#CC1=C(N)Oc2c(c(N)nn2-c2ccccc2)C1c1ccc(Cl)cc1Cl (centres undefined) : 104% (inactive)

growth reading for `N=c1c(S(=O)(=O)c2ccccc2)cc2c(=O)n3ccccc3nc2n1C1CCCC1` : 111% (inactive)

growth reading for `COc1ccc2c(c1)C/C(=C\c1cc(-c3ccc4c(c3)OCO4)n[nH]1)C2=O` : 103% (inactive)

growth reading for N#CC1C(=N)Cc2ccccc2-c2ccccc21 (centres undefined) : 51.5% (inactive)

growth reading for `CC(C)(C)c1nc(-c2ccc(O)c(O)c2)cs1` : 76.2% (inactive)

growth reading for `COc1cc(-c2cc3ncccc3c3nc(N)c4cccnc4c23)cc(OC)c1OC` : 44.3% (inactive)

growth reading for `CCCCC[C@H]1CC=C2C(=O)C=C[C@@H]2CC=CCCCC(=O)O[C@@H](CCCCC)CC=C2C(=O)C=C[C@@H]2CC=CCCCC(=O)O[C@@H](CCCCC)CC=C2C(=O)C=C[C@@H]2CC=CCCCC(=O)O1` : -3.87% [8.75 µM] (active)

growth reading for `CCN1CCN(C(=O)[C@]23CC[C@@H](C)[C@H](C)[C@H]2C2=CC[C@@H]4[C@@]5(C)C/C(=C/c6cccc(OC)c6OC)C(=O)C(C)(C)[C@@H]5CC[C@@]4(C)[C@]2(C)CC3)CC1` : 46.4% (inactive)

growth reading for CN(C)CCCC1(c2ccc(F)cc2)OCc2cc(-c3ccc(C(F)(F)F)nc3)ccc21 (centres undefined) : -31.8% (active)

growth reading for `O=C(NC1=CC(=O)c2ccccc2C1=O)c1ccccc1` : -4.63% (active)

growth reading for `CN(C)c1ccc(N)c2ccccc12` : -2.3% (active)

growth reading for `CC1(C)NCCC[C@]2(C)[C@H]3CC[C@@H]4[C@H]5[C@H](C(=O)/C=C/c6ccccn6)CC[C@]5(CO)CC[C@@]4(C)[C@]3(C)CC[C@@H]12` : 64% (inactive)

growth reading for COc1cccc2c1C(=O)c1c(O)c3c(c(O)c1C2=O)C[C@@](O)(C(=O)CO)C[C@@H]3OC1C[C@H](N)[C@H](O)[C@H](C)O1 (some centres undefined) : -35% (active)

growth reading for `COc1cc2nc(Cl)nc(Nc3cccc(C(=O)/C=C/c4ccc(Cl)cc4)c3)c2cc1OC` : 94% (inactive)

growth reading for `O=C1Nc2ccccc2/C1=C/c1cn(CCCn2c3ccccc3c(=O)c3ccccc32)c2ccccc12` : 109% (inactive)

growth reading for `Nc1ncnc2nc(Br)[nH]c12` : 87.7% (inactive)

growth reading for `COc1cc2c(cc1-c1c(C)noc1C)ncc1nc(C3CC3)n([C@H](C)COC(F)F)c12` : 36.3% (inactive)

growth reading for `Cc1nn2c(-c3nc4cc(Cl)c(Cl)cc4[nH]3)c(-c3ccc(F)cc3)nc2s1` : -21% (active)
